# target.system: Wee1-like protein kinase (Homo sapiens, UniProt P30291)
# Sequence (P30291 whole entry): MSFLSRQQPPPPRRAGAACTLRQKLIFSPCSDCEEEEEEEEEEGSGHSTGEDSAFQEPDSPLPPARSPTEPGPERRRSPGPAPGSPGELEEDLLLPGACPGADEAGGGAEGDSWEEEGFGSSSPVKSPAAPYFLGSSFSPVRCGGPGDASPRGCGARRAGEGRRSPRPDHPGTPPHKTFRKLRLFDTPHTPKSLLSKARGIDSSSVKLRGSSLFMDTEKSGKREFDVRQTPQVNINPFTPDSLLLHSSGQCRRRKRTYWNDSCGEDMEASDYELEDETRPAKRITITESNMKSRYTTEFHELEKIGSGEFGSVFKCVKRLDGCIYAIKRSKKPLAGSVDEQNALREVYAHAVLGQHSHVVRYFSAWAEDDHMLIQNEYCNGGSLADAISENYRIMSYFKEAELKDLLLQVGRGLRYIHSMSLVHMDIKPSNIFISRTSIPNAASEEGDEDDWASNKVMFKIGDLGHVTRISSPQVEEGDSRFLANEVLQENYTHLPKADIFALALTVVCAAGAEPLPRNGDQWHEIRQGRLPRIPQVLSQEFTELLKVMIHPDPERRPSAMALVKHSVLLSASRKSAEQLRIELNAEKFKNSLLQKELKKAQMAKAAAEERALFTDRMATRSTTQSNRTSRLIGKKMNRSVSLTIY
outcome.measure: pIC50
Please treat pIC50 as minus the base-10 logarithm of the molar concentration.

Some compounds with known pIC50 results, for comparison:
INSERT INTO assay_data (compound, outcome_measure, test_value) VALUES
  ('C=CCn1c(=O)c2cnc(Nc3ccc(N4CCN(C)CC4)cc3)nc2n1-c1ccc2c(n1)[C@](C)(O)CCC2', 'pIC50', 8.43),
  ('C=CCn1c(=O)c2cnc(Nc3ccc(N4CCN(C)CC4)cc3)nc2n1-c1ccc2c(c1)C(C)(O)CC2 (single isomer, unassigned)', 'pIC50', 8.48);

Read the next record carefully.
Inquiry: Entry C=CCn1c(=O)c2cnc(Nc3ccc(N4CCN(C)CC4)cc3)nc2n1-c1ccc2c(n1)C(O)(C1CC1)CC2 (single isomer, unassigned) : reported pIC50 = ?
Reply text: 8.54
